Origin of values: patent US20110015226A1

valueKind: IC50

rat intestinal lactase (Rattus norvegicus) data for O=C(O)[C@H]1NC[C@H](O)[C@@H](O)[C@@H]1O ; its IC50: > 1000 µM

---

# Test system: N-acetyl-β-D-glucosaminidase (Bovine kidney)
# assaySummary: Glycosidase inhibition: N-acetyl-β-D-glucosaminidase (Bovine kidney)
# Assay type: biochemical
# experimentalContext: compounds tested at 0.8 mM
valueKind: % inhibition, N-acetyl-β-D-glucosaminidase (Bovine kidney) (%)
Report only the number, with the unit % understood.

Short answer for O=C(O)CCN1C[C@H](O)[C@@H](O)[C@H](O)[C@H]1CO : % inhibition, N-acetyl-β-D-glucosaminidase (Bovine kidney) was 86.1

Short answer for O=C(O)CN1C[C@@H](O)[C@H](O)[C@H]1CO : % inhibition, N-acetyl-β-D-glucosaminidase (Bovine kidney) was 81.9

Short answer for O=C(O)[C@@H]1[C@@H](O)[C@H](O)[C@@H](O)CN1CCO : % inhibition, N-acetyl-β-D-glucosaminidase (Bovine kidney) was 82.0

Short answer for O=C(O)CN1C[C@H](O)[C@@H](O)[C@H](O)[C@H]1CO : % inhibition, N-acetyl-β-D-glucosaminidase (Bovine kidney) was 83.6

---

Could you please report measured IC50 for the items listed next?
# testedTarget: N-acetyl-β-D-glucosaminidase (Bovine kidney)
# assaySummary: Glycosidase inhibition: N-acetyl-β-D-glucosaminidase (Bovine kidney)
# Assay type: biochemical
# experimentalContext: read-out: IC50 against mammalian 6-N-acetylglucosaminidase (hexosaminidase)
Report only the number, with the unit µM understood.

Short answer for O=C(O)CCN1C[C@H](O)[C@@H](O)[C@H](O)[C@H]1CO [Compound T1] : IC50 was 32

Short answer for O=C(O)[C@@H]1[C@@H](O)[C@H](O)[C@@H](O)CN1CCO [Compound T3] : IC50 was 12.2

---

# testedTarget: rat intestinal sucrase (Rattus norvegicus, UniProt P23739)
# Construct: Enzyme activities were prepared from brush border membranes of rat small intestine; from tissue; host or cells: rat small intestine brush border membranes
# Sequence (P23739 whole entry): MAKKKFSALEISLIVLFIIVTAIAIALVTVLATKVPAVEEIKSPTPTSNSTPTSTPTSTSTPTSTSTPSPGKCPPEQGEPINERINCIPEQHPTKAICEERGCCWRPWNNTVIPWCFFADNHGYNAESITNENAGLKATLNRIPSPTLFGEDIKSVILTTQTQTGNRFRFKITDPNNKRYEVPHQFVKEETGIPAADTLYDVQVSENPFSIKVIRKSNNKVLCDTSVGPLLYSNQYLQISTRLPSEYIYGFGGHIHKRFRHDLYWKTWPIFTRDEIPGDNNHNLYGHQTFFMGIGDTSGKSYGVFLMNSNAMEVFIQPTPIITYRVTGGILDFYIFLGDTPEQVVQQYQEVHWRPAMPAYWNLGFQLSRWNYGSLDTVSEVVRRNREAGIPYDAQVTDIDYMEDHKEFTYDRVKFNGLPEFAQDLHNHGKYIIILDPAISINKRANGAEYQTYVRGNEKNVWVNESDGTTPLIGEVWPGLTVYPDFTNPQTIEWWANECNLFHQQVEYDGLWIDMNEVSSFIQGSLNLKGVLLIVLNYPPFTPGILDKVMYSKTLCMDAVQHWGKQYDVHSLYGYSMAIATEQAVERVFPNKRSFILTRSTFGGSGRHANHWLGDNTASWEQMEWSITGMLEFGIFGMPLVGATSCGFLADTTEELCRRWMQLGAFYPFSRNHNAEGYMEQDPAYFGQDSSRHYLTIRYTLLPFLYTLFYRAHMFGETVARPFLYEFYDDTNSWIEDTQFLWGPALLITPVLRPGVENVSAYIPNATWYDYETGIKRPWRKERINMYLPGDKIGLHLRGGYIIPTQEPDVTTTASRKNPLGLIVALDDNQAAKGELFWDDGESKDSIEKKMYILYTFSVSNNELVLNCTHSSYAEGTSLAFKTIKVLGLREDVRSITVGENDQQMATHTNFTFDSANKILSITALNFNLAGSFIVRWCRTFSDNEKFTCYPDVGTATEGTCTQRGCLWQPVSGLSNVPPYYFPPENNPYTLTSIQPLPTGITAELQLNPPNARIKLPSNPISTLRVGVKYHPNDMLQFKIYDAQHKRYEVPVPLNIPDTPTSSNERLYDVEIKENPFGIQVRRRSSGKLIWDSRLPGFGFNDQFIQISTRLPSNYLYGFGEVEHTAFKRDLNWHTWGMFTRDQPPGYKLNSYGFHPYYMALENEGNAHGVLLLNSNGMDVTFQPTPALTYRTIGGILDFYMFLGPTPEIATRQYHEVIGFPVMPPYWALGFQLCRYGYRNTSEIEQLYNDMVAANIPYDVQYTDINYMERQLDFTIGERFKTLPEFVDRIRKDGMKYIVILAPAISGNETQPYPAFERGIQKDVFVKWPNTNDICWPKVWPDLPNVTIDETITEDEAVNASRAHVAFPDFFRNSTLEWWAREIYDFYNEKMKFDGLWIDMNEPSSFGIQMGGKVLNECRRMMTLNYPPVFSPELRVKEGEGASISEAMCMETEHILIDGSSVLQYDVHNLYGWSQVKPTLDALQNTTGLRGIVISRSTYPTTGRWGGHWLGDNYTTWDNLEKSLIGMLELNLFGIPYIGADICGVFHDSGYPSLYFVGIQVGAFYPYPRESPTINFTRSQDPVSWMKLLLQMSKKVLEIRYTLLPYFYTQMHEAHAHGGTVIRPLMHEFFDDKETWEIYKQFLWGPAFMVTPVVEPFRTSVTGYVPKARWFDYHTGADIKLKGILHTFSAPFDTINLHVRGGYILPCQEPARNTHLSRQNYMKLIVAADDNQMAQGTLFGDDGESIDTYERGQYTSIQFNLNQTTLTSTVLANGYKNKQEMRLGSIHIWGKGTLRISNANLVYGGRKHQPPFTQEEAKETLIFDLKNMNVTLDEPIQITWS
# assaySummary: Rat intestinal glycosidases: sucrase
# Assay type: biochemical
# experimentalContext: rat intestinal brush border membranes
pIC50: −log10 of the molar value.
valueKind: pIC50

Short answer for O=C(O)[C@H]1NC[C@H](O)[C@@H](O)[C@@H]1O : pIC50 was < 3.00

---

# testedTarget: α-L-fucosidase Bovine kidney (Bos taurus)
# Construct: α-L-fucosidase (Bovine kidney); purchased Sigma; host or cells: bovine kidney
# Sequence (Q2KIM0 23-468): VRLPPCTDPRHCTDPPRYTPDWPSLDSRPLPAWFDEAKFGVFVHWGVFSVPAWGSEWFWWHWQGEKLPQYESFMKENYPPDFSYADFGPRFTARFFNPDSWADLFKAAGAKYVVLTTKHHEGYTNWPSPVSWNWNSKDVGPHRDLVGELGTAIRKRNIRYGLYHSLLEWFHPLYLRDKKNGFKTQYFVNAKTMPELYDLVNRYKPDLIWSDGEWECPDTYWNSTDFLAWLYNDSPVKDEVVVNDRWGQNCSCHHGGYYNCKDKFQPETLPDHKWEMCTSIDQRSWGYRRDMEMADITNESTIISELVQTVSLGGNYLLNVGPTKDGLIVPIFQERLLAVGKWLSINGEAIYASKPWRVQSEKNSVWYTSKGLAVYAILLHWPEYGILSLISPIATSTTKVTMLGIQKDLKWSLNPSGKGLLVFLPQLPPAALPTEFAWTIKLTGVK
# assaySummary: Glycosidase inhibition: α-L-fucosidase Bovine kidney
# Type: biochemical
# experimentalContext: compounds tested at 0.8 mM
Could you please report measured inhibition at 800 µM for the items listed next?

Short answer for OC[C@H]1NC[C@H](O)[C@@H](O)[C@@H]1O [DNJ, 1-deoxynojirimycin, reference compound] : inhibition at 800 µM was < 10%

Short answer for O=C(O)[C@@H]1[C@@H](O)[C@H](O)[C@@H](O)CN1CCO : inhibition at 800 µM was < 50%

Short answer for O=C(O)CN1C[C@H](O)[C@@H](O)[C@H](O)[C@H]1CO : inhibition at 800 µM was < 50%

Short answer for O=C(O)CN1[C@H](CO)[C@@H](O)[C@H](O)[C@H]1CO : inhibition at 800 µM was < 50%

Short answer for O=C(O)CN1C[C@@H](O)[C@H](O)[C@H]1CO : inhibition at 800 µM was < 50%

Short answer for CCCCOC(=O)[C@@H]1[C@@H](O)[C@H](O)[C@@H](O)CN1CCCC : inhibition at 800 µM was < 50%

Short answer for O=C(O)[C@H]1NC[C@H](O)[C@@H](O)[C@@H]1O : inhibition at 800 µM was < 10%

Short answer for O=C(O)CCN1C[C@H](O)[C@@H](O)[C@H](O)[C@H]1CO : inhibition at 800 µM was < 50%

---

# testedTarget: β-Glucuronidase Bovine liver (Bos taurus)
# Construct: The assay involved the use of Bovine liver β-glucuronidase; purchased Sigma; host or cells: bovine liver
# Sequence (A3KMY8 1-652): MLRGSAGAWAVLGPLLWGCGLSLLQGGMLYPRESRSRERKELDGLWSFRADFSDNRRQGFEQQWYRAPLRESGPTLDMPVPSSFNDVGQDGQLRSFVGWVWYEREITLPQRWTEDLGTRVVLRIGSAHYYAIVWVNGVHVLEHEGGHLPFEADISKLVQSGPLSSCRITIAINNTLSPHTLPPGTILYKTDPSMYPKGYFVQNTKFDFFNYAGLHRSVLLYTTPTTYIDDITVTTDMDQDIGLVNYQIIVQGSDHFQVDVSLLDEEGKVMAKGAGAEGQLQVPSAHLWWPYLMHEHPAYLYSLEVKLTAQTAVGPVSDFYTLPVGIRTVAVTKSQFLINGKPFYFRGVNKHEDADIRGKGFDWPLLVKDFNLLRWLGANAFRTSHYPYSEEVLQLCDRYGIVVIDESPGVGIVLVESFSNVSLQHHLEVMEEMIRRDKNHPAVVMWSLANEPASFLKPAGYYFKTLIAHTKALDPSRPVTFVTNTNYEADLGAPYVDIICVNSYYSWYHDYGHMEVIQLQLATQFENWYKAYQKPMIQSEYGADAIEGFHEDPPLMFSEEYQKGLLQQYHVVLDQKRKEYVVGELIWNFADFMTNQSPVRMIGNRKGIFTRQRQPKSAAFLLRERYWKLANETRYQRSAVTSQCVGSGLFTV
# assaySummary: Glycosidase inhibition: β-Glucuronidase Bovine liver;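 note: bovine liver β-glucuronidase acting on p-nitrophenyl β-D-glucuronide substrate in citric acid/disodium hydrogen phosphate buffer, pH 5.0, 27 °C, mean of triplicate runs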
# Assay type: biochemical
# experimentalContext: pH 5.0, 27° C., p-nitrophenyl β-D-glucuronide; read-out: IC50, β-Glucuronidase Bovine liver
Could you please report measured pIC50 for the items listed next?
Recall that pIC50 is obtained by taking minus log10 of the concentration measured in molar.

Short answer for O=C(O)CN1C[C@H](O)[C@@H](O)[C@H](O)[C@H]1CO : pIC50 was 4.10

Short answer for O=C(O)CN1[C@H](CO)[C@@H](O)[C@H](O)[C@H]1CO : pIC50 was 3.29

Short answer for O=C(O)CN1C[C@@H](O)[C@H](O)[C@H]1CO : pIC50 was 3.80

Short answer for CCCCOC(=O)[C@@H]1[C@@H](O)[C@H](O)[C@@H](O)CN1CCCC : pIC50 was 3.55

---

# Test system: N-acetyl-β-D-glucosaminidase (Bovine kidney)
# assaySummary: Glycosidase inhibition: N-acetyl-β-D-glucosaminidase (Bovine kidney);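 note: enzyme activity followed by cleavage of the matching p-nitrophenyl glycoside (5 mM) in phosphate buffer set to the enzyme's optimal pH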
# Type: biochemical
# experimentalContext: approximately 0.8 mM
Could you please report measured % Nacetyl glucosaminidase inhibition at 0.8 mM Bovine kidney for the items listed next?
Report only the number, with the unit % understood.

Short answer for CC(CC(N)C(=O)O)C(=O)O (stereo not drawn) : % Nacetyl glucosaminidase inhibition at 0.8 mM Bovine kidney was 0.8

Short answer for CC(O)(CC(N)C(=O)O)C(=O)O (stereo not drawn) : % Nacetyl glucosaminidase inhibition at 0.8 mM Bovine kidney was −4.2

Short answer for CN1C[C@H](O)C[C@H]1C(=O)O : % Nacetyl glucosaminidase inhibition at 0.8 mM Bovine kidney was −4.7

Short answer for O=C(O)[C@@H]1[C@@H](O)[C@H](O)[C@H]2[C@@H](O)CCN21 : % Nacetyl glucosaminidase inhibition at 0.8 mM Bovine kidney was 5.1

Short answer for C[N+]1([O-])CC[C@H](O)[C@@H]1C(=O)O (stereo partly drawn) : % Nacetyl glucosaminidase inhibition at 0.8 mM Bovine kidney was −0.6

Short answer for CC[C@@H]1C(C)[C@H](C)CN1CCCC(C)=O (stereo partly drawn) : % Nacetyl glucosaminidase inhibition at 0.8 mM Bovine kidney was 17

Short answer for O=C(O)[C@]1(O)NC[C@@H](O)[C@H]1O : % Nacetyl glucosaminidase inhibition at 0.8 mM Bovine kidney was 2.9

Short answer for O=C(O)CN1C[C@@H](O)[C@@H](O)C1[C@@H](O)CO (stereo partly drawn) : % Nacetyl glucosaminidase inhibition at 0.8 mM Bovine kidney was 82.3

Short answer for O=C(O)[C@H]1NCC(O)C1O (stereo partly drawn) : % Nacetyl glucosaminidase inhibition at 0.8 mM Bovine kidney was 6.6

Short answer for O=C(O)[C@H]1NC[C@H](O)[C@@H](O)[C@@H]1O [drawing 22] : % Nacetyl glucosaminidase inhibition at 0.8 mM Bovine kidney was 2.4

Short answer for CCC1CC(CC2CC(CCCC(C)C)[C@@H](CC)C(C)[C@H]2C)C(C)C(C)C1C (stereo partly drawn) : % Nacetyl glucosaminidase inhibition at 0.8 mM Bovine kidney was 49.4

Short answer for O=C(O)[C@@]1(O)CNC[C@@H](O)[C@H]1O : % Nacetyl glucosaminidase inhibition at 0.8 mM Bovine kidney was 4.8

Short answer for C[C@@]1(C(=O)O)NC[C@H](O)[C@H]1O : % Nacetyl glucosaminidase inhibition at 0.8 mM Bovine kidney was 7.6

Short answer for CC(=O)NC1NC[C@H](C(=O)O)[C@H](O)[C@@H]1O (stereo partly drawn) : % Nacetyl glucosaminidase inhibition at 0.8 mM Bovine kidney was 57.9

Short answer for O=C(O)CCC1[C@H](CO)C(=O)[C@H](O)[C@H]1CO (stereo partly drawn) : % Nacetyl glucosaminidase inhibition at 0.8 mM Bovine kidney was 90.1

Short answer for C[N+]1(C)CCC[C@H]1C(=O)[O-] : % Nacetyl glucosaminidase inhibition at 0.8 mM Bovine kidney was 2.3

Short answer for C[N+]1(C)C[C@@H](O)[C@H](O)[C@H]1C(=O)[O-] : % Nacetyl glucosaminidase inhibition at 0.8 mM Bovine kidney was 8

Short answer for N[C@]1(C(=O)O)C[C@H](CO)C1 : % Nacetyl glucosaminidase inhibition at 0.8 mM Bovine kidney was 7.1

Short answer for CC[C@@H]1C(=O)[C@H](O)CN1CCCCC(=O)O : % Nacetyl glucosaminidase inhibition at 0.8 mM Bovine kidney was 8

Short answer for O=C(O)[C@H]1NC(=O)[C@H](O)[C@@H](O)[C@@H]1O : % Nacetyl glucosaminidase inhibition at 0.8 mM Bovine kidney was −5.2

Short answer for O=C(O)[C@H]1N[C@H](CO)C(O)[C@H](O)[C@@H]1O (stereo partly drawn) : % Nacetyl glucosaminidase inhibition at 0.8 mM Bovine kidney was 25.8

---

# testedTarget: α-D-mannosidase Jack bean (Canavalia ensiformis)
# Construct: α-D-mannosidase (Jack bean); purchased Sigma
# Sequence (C0HJB3 whole entry): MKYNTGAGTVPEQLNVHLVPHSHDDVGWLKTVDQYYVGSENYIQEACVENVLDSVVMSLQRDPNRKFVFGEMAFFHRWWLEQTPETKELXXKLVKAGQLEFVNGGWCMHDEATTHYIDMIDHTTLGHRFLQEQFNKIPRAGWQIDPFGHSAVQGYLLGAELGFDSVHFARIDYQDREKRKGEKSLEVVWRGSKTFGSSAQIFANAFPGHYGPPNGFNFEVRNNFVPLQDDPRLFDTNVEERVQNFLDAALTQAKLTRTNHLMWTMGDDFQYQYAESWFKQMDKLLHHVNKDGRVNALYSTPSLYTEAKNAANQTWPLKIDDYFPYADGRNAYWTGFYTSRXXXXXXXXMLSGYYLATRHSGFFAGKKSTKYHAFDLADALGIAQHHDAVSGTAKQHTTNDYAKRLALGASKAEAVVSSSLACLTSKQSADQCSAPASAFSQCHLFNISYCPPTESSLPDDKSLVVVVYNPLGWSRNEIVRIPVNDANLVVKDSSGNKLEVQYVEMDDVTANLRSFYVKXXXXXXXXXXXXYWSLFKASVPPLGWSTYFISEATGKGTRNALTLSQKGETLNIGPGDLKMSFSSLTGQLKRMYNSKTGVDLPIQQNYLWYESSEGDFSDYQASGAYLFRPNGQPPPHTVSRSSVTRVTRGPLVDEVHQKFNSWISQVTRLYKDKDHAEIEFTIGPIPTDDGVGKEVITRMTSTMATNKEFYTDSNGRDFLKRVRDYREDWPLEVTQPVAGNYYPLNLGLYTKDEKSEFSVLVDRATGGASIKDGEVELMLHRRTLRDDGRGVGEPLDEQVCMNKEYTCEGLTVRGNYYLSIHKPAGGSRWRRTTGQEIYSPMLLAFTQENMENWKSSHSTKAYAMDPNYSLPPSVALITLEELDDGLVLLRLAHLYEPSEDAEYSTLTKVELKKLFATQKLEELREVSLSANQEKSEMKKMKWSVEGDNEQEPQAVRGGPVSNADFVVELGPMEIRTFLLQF
# assaySummary: Glycosidase inhibition: α-D-mannosidase Jack bean
# Format: biochemical
# experimentalContext: compounds tested at 0.8 mM
valueKind: inhibition at 800 µM

α-D-mannosidase Jack bean (Canavalia ensiformis) data for O=C(O)CCN1C[C@H](O)[C@@H](O)[C@H](O)[C@H]1CO ; its inhibition at 800 µM: < 50%

α-D-mannosidase Jack bean (Canavalia ensiformis) data for O=C(O)[C@@H]1[C@@H](O)[C@H](O)[C@@H](O)CN1CCO ; its inhibition at 800 µM: < 50%

α-D-mannosidase Jack bean (Canavalia ensiformis) data for O=C(O)CN1C[C@H](O)[C@@H](O)[C@H](O)[C@H]1CO ; its inhibition at 800 µM: < 50%

α-D-mannosidase Jack bean (Canavalia ensiformis) data for CCCCOC(=O)[C@@H]1[C@@H](O)[C@H](O)[C@@H](O)CN1CCCC ; its inhibition at 800 µM: < 50%

α-D-mannosidase Jack bean (Canavalia ensiformis) data for OC[C@H]1NC[C@H](O)[C@@H](O)[C@@H]1O [DNJ, 1-deoxynojirimycin, reference compound] ; its inhibition at 800 µM: 26%

α-D-mannosidase Jack bean (Canavalia ensiformis) data for O=C(O)CN1[C@H](CO)[C@@H](O)[C@H](O)[C@H]1CO ; its inhibition at 800 µM: < 50%

α-D-mannosidase Jack bean (Canavalia ensiformis) data for O=C(O)[C@H]1NC[C@H](O)[C@@H](O)[C@@H]1O ; its inhibition at 800 µM: 29%

α-D-mannosidase Jack bean (Canavalia ensiformis) data for O=C(O)CN1C[C@@H](O)[C@H](O)[C@H]1CO ; its inhibition at 800 µM: < 50%
